// data source = PubChem BioAssay (NCI)

Test system: OVCAR-4 ovarian
Procedure text: NCI tumour cell line growth inhibition, 48 h
Recorded endpoint: TGI (µM)
Numbers only; they are read as µM.

Example results:
Noted TGI for `Cc1ccc(NC(=O)C23CC4CC(CC(C4)C2)C3)c(C(=O)NNC(=O)c2ccc(Cl)cc2)c1` , tested on OVCAR-4 ovarian: 65.8

Noted TGI for `CCCC(c1cc(C(C)(C)C)c(O)cc1C)c1cc(C(C)(C)C)c(O)cc1C` , tested on OVCAR-4 ovarian: 19.4

Measured TGI for this entry `CN1CCN(C(=O)OCc2nc3c(N4CCOCC4)nc(-c4ccccc4)nc3n2C)CC1` on OVCAR-4 ovarian: 2.65

--- query ---
Value (TGI, OVCAR-4 ovarian) for record `CCOC(=O)c1c2c(n(Cc3ccccc3)c1C)-c1nc[nH]c1C(=O)C2=O` = 26.3

====

Listed compounds paired with reported GI50
Tested on: SF-539 CNS
Procedure text: NCI tumour cell line growth inhibition, 48 h

Solved cases below.
GI50 recorded for this compound, `CO[C@@H]1[C@H](N(C)C(=O)c2ccccc2)C[C@@H]2O[C@]1(C)n1c3ccccc3c3c4c(c5c6ccccc6n2c5c31)C(=O)NC4=O` , is 1.08 µM

The measured GI50 associated with `O=C(/C=C/c1cccnc1)c1ccccc1` reads 13.3 µM

Summary for this compound, COc1ccc2c(c1)OC(N)=C(C#N)C2c1ccc(F)c(F)c1 (stereo unspecified) : GI50 is 0.271 µM

GI50 measured on `Cc1cccc2c1NC(=O)[C@@H](NC(=O)[C@H](CCC(F)(F)F)[C@H](CCC(F)(F)F)C(N)=O)N=C2c1cccc(F)c1` = 18.4 µM

More entries:
Sample `ClCCN(CCCl)c1ccc(OCc2ccccc2)cc1` ; GI50 observed: 2.03 µM

Measured GI50 of `CC(=O)N[C@@H](Cc1ccc(OP(=O)(O)O)cc1)C(=O)N[C@H]1CCC(=O)N2CCC[C@@H](C(=O)NCc3cccc4ccccc34)N2C1=O` : > 25 µM

In plain terms, `O=C(NC(=S)Nc1ccc(-c2nc3ccccc3[nH]2)cc1)c1ccc2ccccc2c1` has a documented GI50 of 2.07 µM

The compound `CCN1C2=C(SC(=S)C1=C1SC(C(=O)c3ccccc3)=C(C(=O)c3ccccc3)S1)SC(=Nc1ccccc1)C2=O` showed GI50 equal to 14.4 µM

Reported GI50 for `CCOC(=O)Nc1ccc2c3c(cccc13)-c1ccccc1-2` was 5.65 µM

Sure, the documented GI50 for `O=C1/C(=C\c2ccc(Cl)cc2)CN(C(=O)c2ccccc2)C/C1=C\c1ccc(Cl)cc1` is 2.15 µM

# GI50 of `CN(CCNc1ccc(C(=N)N)cc1)c1ccc(C(=N)N)cc1` = 35.1 µM

====

Readings of TGI for the listed molecules
System: EKVX NSCLC
Procedure text: NCI tumour cell line growth inhibition, 48 h

The recorded TGI for C=C1CC2(C)CCC(OC(=O)C3(C)OC3C)C(C)(OC(C)=O)C2CC1=C(C)C (configuration not stated) is > 100 µM

Consider `O=C([CH-]C(=O)c1ccccc1)c1ccccc1.O=C([CH-]C(=O)c1ccccc1)c1ccccc1.[CH2-]CCC.[CH2-]CCC.[Sn+4]` . Its measured TGI is 2.7 µM

According to the records, this molecule Cc1ccc(NC(=O)CC2SC(=Nc3cccc(Cl)c3C)NC2=O)cc1 (configuration not stated) displays TGI of > 100 µM

Cc1nn(C(=O)c2ccc(Cl)cc2)c2c1C(c1ccccc1)SC(N)=N2 (configuration not stated) yielded TGI of > 10 µM

***
Noted for C=CCC1=C2CCCCC2CCC1=O (configuration not stated) : its TGI reads > 100 µM

====

Test system: NCI-H23 lung
Procedure text: NCI tumour cell line growth inhibition, 48 h
# binarize TGI: threshold 40 µM inclusive, high side YES, low side NO

Use these answered entries as a reference point.
Exam item: Decide: TGI of `CCc1nc2c(n1CC)C(=O)c1ccccc1C2=O` >= 40 µM?
Marked response: YES

Exam item: Determine whether measured TGI meets or exceeds 40 µM for `Brc1ccc2[nH]cc([C@@H]3CN[C@@H](c4c[nH]c5ccc(Br)cc45)CN3)c2c1`
Marked response: NO

More entries:
Exam item: Record `Nc1ccc(N=Nc2ccc(-c3ccc(N=Nc4c(S(=O)(=O)O)cc5cc(S(=O)(=O)O)c(N=Nc6ccc([N+](=O)[O-])cc6)c(N)c5c4O)cc3)cc2)c2cc(S(=O)(=O)O)ccc12` ; criterion: TGI no lower than 40 µM. Met?
Marked response: YES

Exam item: Textbook exercise: given the entry `Cc1ccc2[nH]c3c(C)c4cc[n+](C)cc4c(C)c3c2c1` , state whether its TGI is greater than or equal to 40 µM.
Marked response: NO

Exam item: In plain terms: is recorded TGI at least 40 µM for `COc1cc2cc(Oc3ccc(NC(=O)Nc4ccc(F)c(C(F)(F)F)c4)cc3)c(C)nc2cc1OCCN1CCOCC1` ?
Marked response: NO

Exam item: Record `COc1ccc(-c2nnc3c4ccccc4sn23)cc1` ; criterion: TGI no lower than 40 µM. Met?
Marked response: YES

====

System: OVCAR-8 ovarian
Procedure text: NCI tumour cell line growth inhibition, 48 h
Recorded endpoint: TGI

Entry `Nc1nc(N)c2cc(Sc3ccc(Cl)cc3)ccc2n1` , TGI reported as 2.61 µM

Sample `O=C1/C(=C\c2ccc(Cl)cc2)CN(C(=O)c2ccccc2)C/C1=C\c1ccc(Cl)cc1` ; TGI observed: > 100 µM

Measured TGI, `CC(C)[C@]12O[C@H]1[C@@H]1O[C@]13[C@]1(O[C@H]1C[C@H]1C4=C(CC[C@@]13C)C(=O)OC4)[C@@H]2OC(=O)OC(C)(C)C` : > 100 µM

OCC(O)COc1ccc(F)cc1 (stereo not given) yielded TGI of > 100 µM

Entry under test: `O=C(O)c1ccc(NCn2nc(-c3ccccc3O)oc2=S)cc1O` . Its TGI was > 100 µM

***
Input `CCCC(c1cc(C(C)(C)C)c(O)cc1C)c1cc(C(C)(C)C)c(O)cc1C` . Output TGI: 12.9 µM

====

Listing: TGI of selected compounds
System: UACC-257 melanoma
Procedure text: NCI tumour cell line growth inhibition, 48 h

UACC-257 melanoma data for `Cc1ccc(C2=NN=C3C(c4ccccc4)=Nc4ccccc4N3C2)cc1` ; its TGI: 33.6 µM

Record `[N-]=[N+]=NCC(=O)c1c[nH]c(=O)[nH]c1=O` ; system UACC-257 melanoma; TGI = > 100 µM

Value sought: TGI, system UACC-257 melanoma, item `COc1cc(/C=C(\C)c2ccc3c(c2)OCO3)cc(OC)c1OC` . Result: > 100 µM

The observed TGI for `Cc1ccc(NC(=O)C23CC4CC(CC(C4)C2)C3)c(C(=O)NNC(=O)c2ccc(Cl)cc2)c1` when tested with UACC-257 melanoma stands at 9.53 µM

Okay, next one:
Here COC(=O)C(=O)C(C(=O)C(=O)Nc1ccccc1C(N)=O)c1nc2ccc([N+](=O)[O-])cc2[nH]c1=O (stereo not given) was tested on UACC-257 melanoma, and its TGI came to > 100 µM

====

Tested on: MCF7 breast
Procedure text: NCI tumour cell line growth inhibition, 48 h
Let's look at some molecules and their measured TGI.

Please review the entries below; each comes with its answer.
For CC(C)(C)OC(=O)CCC1NC(=O)[C@@H]2Cc3c([nH]c4ccccc34)C(c3ccccc3)N2C1=O (stereo partly specified) the molecule record lists TGI as > 100 µM

For this molecule ( C=CC(Br)(CBr)CCC1OC1(C)C (stereo unspecified) ), measured TGI is 29.9 µM

For record CC(=O)OCC(OC(C)=O)C(OC(C)=O)C(/C=N\Nc1nc2ccccc2c(=O)[nH]1)OC(C)=O (stereo unspecified) the listed TGI is > 100 µM

Sure, the documented TGI for `C=CC(C)(C)c1c(OC)oc2ccc(OC)c(C)c2c1=O` is > 100 µM

Reported TGI of `CC(=O)NS(=O)(=O)c1ccc(-n2nc(-c3ccccc3)cc2-c2cc(O)ccc2O)cc1` : > 100 µM

Continuing:
Field TGI (entry CCN1CCC(O)(/C=C/c2cccc(C)c2)C(C(=O)/C=C/c2cccc(C)c2)C1 (stereo unspecified) ) reads 6.44 µM

====

Test system: SK-MEL-5 melanoma
Procedure text: NCI tumour cell line growth inhibition, 48 h
Measured GI50 accompanies every entry in the list below.

Record `COc1cc2cc(Oc3ccc(NC(=O)Nc4ccc(F)c(C(F)(F)F)c4)cc3)c(C)nc2cc1OCCN1CCOCC1` ; system SK-MEL-5 melanoma; GI50 = 1.14 µM

Next item in the queue.
Item: `Oc1c(CCl)cc(Cl)cc1Cc1cc(Cl)cc(Cc2cc(Cl)cc(CCl)c2O)c1O` | System: SK-MEL-5 melanoma | GI50: 1.91 µM
